meta.source: patent US20240132624A1

target: T1, cyno FcRn/b2M (cyno, UniProt Q8SPV9 24-297; Q8SPW0 21-119, biotinylated); assay: SPR pH 7.4;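 further: surface plasmon resonance kinetics, periplasmic extracts diluted 1:10 flowed over immobilized target at 25 °C, 120 s association then 600–3600 s dissociation, buffer with 150 mM NaCl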
T1 construct: bought recombinant biotinylated protein (Immunitrack ITF05 or ACRO FCM-C82W5); also called cFcRn; cFcRn/cb2M
T1 sequence (Q8SPV9 24-297 limits assumed, chain 1 of 2): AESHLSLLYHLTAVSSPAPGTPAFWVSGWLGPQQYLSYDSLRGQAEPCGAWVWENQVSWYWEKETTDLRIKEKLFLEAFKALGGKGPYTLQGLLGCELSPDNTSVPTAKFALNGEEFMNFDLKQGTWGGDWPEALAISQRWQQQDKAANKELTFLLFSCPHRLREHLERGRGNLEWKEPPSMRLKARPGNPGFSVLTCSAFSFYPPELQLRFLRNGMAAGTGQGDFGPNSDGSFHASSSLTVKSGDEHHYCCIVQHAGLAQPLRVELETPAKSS
T1 sequence (Q8SPW0 21-119 limits assumed, chain 2 of 2): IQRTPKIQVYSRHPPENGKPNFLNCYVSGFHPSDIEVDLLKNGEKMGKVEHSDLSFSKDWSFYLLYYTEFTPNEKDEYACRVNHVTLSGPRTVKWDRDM
Measured Endpoint: koff
Answers without a unit are incomplete; give the number and then its unit.

>  <Binder>
T0263018B11 S52aN (VHH, name in Kabat numbering, FLAG3-His6 tagged) VHH: EVQLVESGGGVVQPGGSLRLSCAASGFTFSSYAMYWVRQAPGKGLEWVSAISNGGGSTDYADSVKGRFTISRDNSKNTLYLQMNSLRPEDTALYYCAADTLYTSLTWYSYWGQGTLVTVSS

>  <Measured Endpoint>
koff

>  <Result>
0.047 s⁻¹

$$$$

Then there is this binder:
Lab note: measured koff of T0263018B11 S52aW (VHH, name in Kabat numbering, FLAG3-His6 tagged) VHH: EVQLVESGGGVVQPGGSLRLSCAASGFTFSSYAMYWVRQAPGKGLEWVSAISWGGGSTDYADSVKGRFTISRDNSKNTLYLQMNSLRPEDTALYYCAADTLYTSLTWYSYWGQGTLVTVSS was 0.043 s⁻¹
